Where these numbers come from: ChEMBL document CHEMBL4229435

MIC by entry:
Test system: Staphylococcus aureus
Assay: Antimicrobial activity against methicillin-resistant Staphylococcus aureus GAI 10153 after 24 hrs by agar plate dilution method
Type: functional
Conditions: GAI 10153, 24 h
Your answer should be a plain number; it is taken to be in µM.

substanceSmiles | MIC / µM
C[n+]1ccc2c3cc(Cl)ccc3n(-n3c4ccc(Cl)cc4c4cc[n+](C)cc43)c2c1 | 50
Clc1ccc2c(c1)c1cc[n+](Cc3ccccc3)cc1n2-n1c2ccc(Cl)cc2c2cc[n+](Cc3ccccc3)cc21 | 10

Now take the following compound into account.
Prompt line: Tell me the measured MIC of Clc1ccc2[nH]c3c[n+](Cc4ccccc4)ccc3c2c1 , please.
Response line: 500

* * *

Tested on: Escherichia coli
Assay: Antimicrobial activity against Escherichia coli ATCC 25922 after 24 hrs by agar plate dilution method
Type: functional
Conditions: ATCC 25922, 24 h
MIC by entry:
Your answer should be a plain number; it is taken to be in µM.

Worked cases, answers included:
substanceSmiles | measuredOn | valueKind | result
C[n+]1ccc2c(c1)[nH]c1ccc(Cl)cc12 | Escherichia coli | MIC | 500
c1ccc2c(c1)[nH]c1cnccc12 | Escherichia coli | MIC | 250
C[n+]1ccc2c3ccccc3n(-n3c4ccccc4c4cc[n+](C)cc43)c2c1 | Escherichia coli | MIC | 1000
Clc1ccc2c(c1)c1cc[n+](Cc3ccccc3)cc1n2-n1c2ccc(Cl)cc2c2cc[n+](Cc3ccccc3)cc21 | Escherichia coli | MIC | 500

Prompt line: Tell me the measured MIC of C[n+]1ccc2c(c1)[nH]c1ccccc12 , please.
Response line: 1000

Prompt line: Tell me the measured MIC of C[n+]1ccc2c3cc(Cl)ccc3n(-n3c4ccc(Cl)cc4c4cc[n+](C)cc43)c2c1 , please.
Response line: 500

* * *

System: [Candida] intermedia
Experiment: Antimicrobial activity against Candida intermedia GAI 15003 after 24 hrs by agar plate dilution method
Format: functional
Details: Sungouiella intermedia, GAI 15003, 24 h
MIC by entry:
Your answer should be a plain number; it is taken to be in µM.

Worked cases, answers included:
substanceSmiles | MIC / µM
Clc1ccc2c(c1)c1cc[n+](Cc3ccccc3)cc1n2-n1c2ccc(Cl)cc2c2cc[n+](Cc3ccccc3)cc21 | 10
c1ccc2c(c1)c1ccncc1n2-n1c2ccccc2c2ccncc21 | 125

Prompt line: Tell me the measured MIC of Clc1ccc2[nH]c3c[n+](Cc4ccccn4)ccc3c2c1 , please.
Response line: 500

Prompt line: Tell me the measured MIC of C[n+]1ccc2c3cc(Cl)ccc3n(-n3c4ccc(Cl)cc4c4cc[n+](C)cc43)c2c1 , please.
Response line: 50

Prompt line: Tell me the measured MIC of C[n+]1ccc2c3ccccc3n(-n3c4ccccc4c4cc[n+](C)cc43)c2c1 , please.
Response line: 125

Prompt line: Tell me the measured MIC of Clc1ccc2c(c1)c1cc[n+](Cc3ccccn3)cc1n2-n1c2ccc(Cl)cc2c2cc[n+](Cc3ccccn3)cc21 , please.
Response line: 500

Prompt line: Tell me the measured MIC of Clc1ccc2[nH]c3c[n+](Cc4ccccc4)ccc3c2c1 , please.
Response line: 10

Prompt line: Tell me the measured MIC of c1ccc2c(c1)[nH]c1cnccc12 , please.
Response line: 125

Prompt line: Tell me the measured MIC of C[n+]1ccc2c(c1)[nH]c1ccccc12 , please.
Response line: 125

* * *

MIC by entry:
Tested on: Staphylococcus aureus
Experiment: Antimicrobial activity against methicillin-resistant Staphylococcus aureus GAI 10153 after 24 hrs by agar plate dilution method
Format: functional
Conditions: GAI 10153, 24 h

substanceSmiles | MIC
Clc1ccc2[nH]c3c[n+](Cc4ccccn4)ccc3c2c1 | > 1000 µM

Prompt line: Lab note: need MIC for Clc1ccc2c(c1)c1cc[n+](Cc3ccccn3)cc1n2-n1c2ccc(Cl)cc2c2cc[n+](Cc3ccccn3)cc21 on Staphylococcus aureus, anyone have it?
Response line: > 1000 µM

Prompt line: Lab note: need MIC for C[n+]1ccc2c(c1)[nH]c1ccc(Cl)cc12 on Staphylococcus aureus, anyone have it?
Response line: > 1000 µM
